Target: T1, MutS (Escherichia coli, UniProt P23909 1-853)
T1 sequence: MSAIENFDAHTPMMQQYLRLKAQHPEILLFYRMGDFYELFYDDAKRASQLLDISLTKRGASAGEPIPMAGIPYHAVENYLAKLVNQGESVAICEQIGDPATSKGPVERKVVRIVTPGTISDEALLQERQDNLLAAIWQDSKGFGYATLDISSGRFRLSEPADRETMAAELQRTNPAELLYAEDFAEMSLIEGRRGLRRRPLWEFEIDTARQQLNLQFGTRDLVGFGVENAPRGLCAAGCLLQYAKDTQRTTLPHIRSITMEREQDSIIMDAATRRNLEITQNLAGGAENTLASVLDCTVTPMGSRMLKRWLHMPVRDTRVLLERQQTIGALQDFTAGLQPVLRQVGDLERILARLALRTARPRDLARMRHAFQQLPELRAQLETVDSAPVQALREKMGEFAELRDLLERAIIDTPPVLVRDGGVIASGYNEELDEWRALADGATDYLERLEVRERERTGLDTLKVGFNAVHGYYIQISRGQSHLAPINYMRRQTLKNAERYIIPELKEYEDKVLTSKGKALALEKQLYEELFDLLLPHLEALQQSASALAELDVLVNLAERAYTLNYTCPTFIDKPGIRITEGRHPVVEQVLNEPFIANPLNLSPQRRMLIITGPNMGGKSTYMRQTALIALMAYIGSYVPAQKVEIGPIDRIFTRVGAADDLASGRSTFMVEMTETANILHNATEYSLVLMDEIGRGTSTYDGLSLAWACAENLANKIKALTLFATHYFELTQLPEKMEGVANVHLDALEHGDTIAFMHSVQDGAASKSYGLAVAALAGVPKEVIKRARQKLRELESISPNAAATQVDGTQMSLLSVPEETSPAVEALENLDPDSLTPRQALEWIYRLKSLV
Assay: EMSA (Scatchard); 1 mM ADP, 5 mM Mg2+; EMSA: 20 mM HEPES pH 8.0, 125 mM KCl, 1 mM ADP, 5 mM MgCl2, 1 mg/ml BSA, 9% glycerol, 37 C 20 min (gel at 4 C); fluorescence: 25 mM Tris-HCl pH 7.5, 125 mM KCl, 5 mM MgCl2, 1 mM ADP, 20 C
Conditions: protein: recombinant; tags: His-tag (Ni-NTA purified); chain copies: 2; label: 5'-32P; blunt; strand 1 G24 : strand 2 Tg7
RESULT_TYPE: Kd (µM)
Give a bare numeral; the unit µM is implied.

Query block: Using the record for duplex III (G/Tg) (dsDNA, thymidine glycol (5R,6S) at T7 of strand 2) DNA 1: CAAGCCTATGCCCTCAGCACCCAGGGTGCC DNA 2: GGCACCTTGGGTGCTGAGGGCATAGGCTTG , report its Kd.
Result block: 0.044
